- System: SNB-19 CNS
- protocol_notes: NCI-60 one-dose screen, 48 h (100 = growth as untreated, 0 = no growth, -100 = all killed)
- condition_context: 10 µM unless noted
- Experimental: Growth inhibition of the SNB-19 human tumor cell line is measured as a screen for anti-cancer activity. Cells are grown in 96 well plates and exposed to the test compound for 48 hours. Compounds are tested at a single concentration, which is 10^-5 M for most compounds. The reported endpoint is percent growth (GI% or GIPRCNT), where numbers from 0 - 100% represent growth inhibition, and numbers from -100% - 0 represent cell death. For example, a value of 40 represents 60% growth inhibition. […]
Compounds without any hit were thinned out: in the full panel of roughly 83,000, 20% have a hit.
# growth binned as low: < 50%; moderate: ≥ 50% and < 90%; high: ≥ 90%

Place this molecule in its band: N#CC(C#N)=C(C#N)c1c[nH]c2ccccc12
high

Further cases:
Place this molecule in its band: CCCCCCCC(=O)SCC/C=C/[C@@H]1CC(=O)NCc2nc(cs2)C2=N[C@@](C)(CS2)C(=O)N[C@@H](C(C)C)C(=O)N1
low

Place this molecule in its band: CC(C)CCC[C@@H](C)[C@H]1CC[C@H]2[C@@H]3CC=C4N(c5ccccc5)C(=O)CC[C@]4(C)[C@H]3CC[C@]12C
high

Place this molecule in its band: CCN(CC)C(=O)C1CCN(C(=O)c2ccccc2)CC1
high

====

- Test system: SF-539 CNS
- protocol_notes: NCI-60 one-dose screen, 48 h (100 = growth as untreated, 0 = no growth, -100 = all killed)
- condition_context: 10 µM unless noted
About 83,000 compounds went through this panel and 20% of them were active in at least one assay; those are over-represented in the sample as a whole.
recorded_metric: growth (%)
The answer is to be given in %; state only the numeric part.

Example entries begin here.
Identify measured growth associated with O=[N+]([O-])c1cccc(C2c3ccccc3Oc3ccccc32)c1
112

Identify measured growth associated with Cc1cc(Nc2ccc(Cl)c(Cl)c2)nc(N)n1
99.9

Identify measured growth associated with NS(=O)(=O)c1ccc(CCN2C(=O)/C(=C\c3ccc(Cl)cc3)C=C2c2ccc(Oc3ccccc3)cc2)cc1
97.7

Further cases:
Identify measured growth associated with CCN(CC)CCNC(=O)c1c(C)[nH]c(/C=C2\C(=O)Nc3cc(NC(=O)NC(=O)c4ccc(OC)cc4F)ccc32)c1C
94.7

Identify measured growth associated with O=C(NCCNc1nccc(-c2c(-c3cccc(O)c3)nc3sccn23)n1)c1ccccc1O
61.9

Identify measured growth associated with O=C(Cn1c2ccccc2c2ccncc21)N/N=C/c1cc(O)c(O)c(O)c1
93.1

Identify measured growth associated with N#Cc1c(N)nc2c(c1N)C(c1ccc(Cl)cc1)C1=C(CCCC1=O)N2c1sc2c(c1C#N)CCCC2 (centres undefined)
96

Identify measured growth associated with C=C1C(=O)O[C@H]2[C@H]1CC/C(COC(=O)c1ccc(Br)cc1)=C\CC[C@@]1(C)O[C@@H]21
-76.3

Identify measured growth associated with Cc1ccn2cc(Cc3cc(=O)oc4c3ccc3ccccc34)c(=O)nc2c1
93.7

====

- Tested on: NCI-H522 lung
- protocol_notes: NCI-60 one-dose screen, 48 h
- condition_context: 10 µM unless noted
The panel holds about 83,000 compounds, 20% with a hit somewhere; the sample as a whole holds those more often. Calls of active or inactive are those of the source. Rule for the calls: active = growth percent below 10; inactive = the rest.
# output must be one of 1 (yes) for active, 0 (no) for inactive

Field: example entries. Status: answers known.
Given O=C(Nc1cccc(-n2ccc3c(NC(=O)c4ccccc4)nccc32)c1)c1cccc(C(F)(F)F)c1 , state the outcome it received in this test.
1 (yes)

Given O=c1c(-c2ccc3c(c2)OCO3)coc2c(CO)c(O)ccc12 , state the outcome it received in this test.
0 (no)

Given CS(=O)(=O)OCC(COS(C)(=O)=O)C(c1ccccc1)c1ccccc1 , state the outcome it received in this test.
0 (no)

Given CCCCCCCC(=O)SCC/C=C/[C@@H]1CC(=O)NCc2nc(cs2)C2=N[C@@](C)(CS2)C(=O)N[C@@H](C(C)C)C(=O)N1 , state the outcome it received in this test.
1 (yes)

Given Cc1ccc2nc(-c3ccc(-n4on4-c4ccc(/C=C/c5ccc(-n6on6-c6ccc(-c7nc8ccc(C)cc8s7)cc6)cc5S(=O)(=O)O)c(S(=O)(=O)O)c4)cc3)sc2c1 , state the outcome it received in this test.
0 (no)

Given CCOc1ccccc1C(=O)N1CCN(c2cc(Cl)cc(Cl)c2)CC1 , state the outcome it received in this test.
1 (yes)

Given CCCOC(=O)c1ccc([N+](=O)[O-])o1 , state the outcome it received in this test.
0 (no)

Given CN(CCNCc1ccccn1)CCNCc1ccccn1 , state the outcome it received in this test.
0 (no)

Given O=C(O)c1cn(C2CC2)c2cc(N3CCN(C(=O)CSc4nc(NS(=O)(=O)c5ccccc5)cc(=O)[nH]4)CC3)c(F)cc2c1=O , state the outcome it received in this test.
0 (no)

Given O=C(Nc1cccc(-n2ccc3c(NC(=O)c4ccccc4)ncnc32)c1)Nc1ccc(Cl)c(C(F)(F)F)c1 , state the outcome it received in this test.
0 (no)

Further cases:
Given COc1cc(NS(C)(=O)=O)ccc1Cc1c2ccccc2nc2ccccc12 , state the outcome it received in this test.
0 (no)

Given CN1C(=O)C2(NN=C(c3cccc4ccccc34)S2)c2ccccc21 (centres undefined) , state the outcome it received in this test.
0 (no)

Given Cc1ccc(-c2cn3cc([N+](=O)[O-])ccc3n2)cc1 , state the outcome it received in this test.
0 (no)

Given COc1cccc(/C=N/C(=S)NC2(C)C3CCC(C3)C2(C)C)c1O (centres undefined) , state the outcome it received in this test.
0 (no)

Given COC(=O)CCCNS(=O)(=O)c1cc(C(=O)Nc2ccc(NC(=O)c3cc(S(=O)(=O)NCCCC(=O)OC)c(O)c(O)c3O)cc2)c(O)c(O)c1O , state the outcome it received in this test.
0 (no)

====

- Tested on: SR leukemia
- protocol_notes: NCI-60 one-dose screen, 48 h
- condition_context: 10 µM unless noted
- Experimental: Growth inhibition of the SR human tumor cell line is measured as a screen for anti-cancer activity. Cells are grown in 96 well plates and exposed to the test compound for 48 hours. Compounds are tested at a single concentration, which is 10^-5 M for most compounds. The reported endpoint is percent growth (GI% or GIPRCNT), where numbers from 0 - 100% represent growth inhibition, and numbers from -100% - 0 represent cell death. For example, a value of 40 represents 60% growth inhibition. […]
Compounds without any hit were thinned out: in the full panel of roughly 83,000, 20% have a hit. The source made the active and inactive calls. Rule for the calls: active = growth percent below 10; inactive = the rest.
# output must be one of class 1 for active, class 0 for inactive

Given COc1cc(NC(C)CCCN2C(=O)c3ccccc3C2=O)c2nccc(C)c2c1OC (stereo not drawn) , state the outcome it received in this test.
class 0

Given C=C1C(=O)O[C@H]2[C@H]1CC/C(COC(=O)OC/C1=C/CC[C@@]3(C)O[C@H]3[C@H]3OC(=O)[C@@H](CN(C)C)[C@@H]3CC1)=C\CC[C@@]1(C)O[C@@H]21 , state the outcome it received in this test.
class 1

Given CCCCCn1ncc(-c2c(O)c(O)cc3c(O)c(-c4c(C)cc5c(-c6cnn(CCCCC)n6)c(O)c(O)cc5c4O)c(C)cc23)n1 , state the outcome it received in this test.
class 1

Given O=C(Nc1ccc(-n2cc(-c3ccncc3)c(-c3ccc(O)c(Cl)c3)n2)cc1)c1ccc(Cl)c(C(F)(F)F)c1 , state the outcome it received in this test.
class 1

Given COc1cc(NC(=O)c2cc(OC)c3ccn(C)c3c2)cc2c1C[C@]1(C)CC[C@@H](O)C(C)(C)[C@H]1O2 , state the outcome it received in this test.
class 0

Further cases:
Given NCC(=O)NS(=O)(=O)OC[C@H]1O[C@@H](n2cnc3c(N)ncnc32)[C@H](O)[C@@H]1O , state the outcome it received in this test.
class 1

Given O=C1COc2ccccc2C(=O)N1CCCCN1CCCCC1 , state the outcome it received in this test.
class 0

Given C=CCn1c(SCC(=O)Nc2ccc(/C(C)=N\O)cc2)nnc1-c1cc(-c2ccc(OC)cc2)nc2ccccc12 , state the outcome it received in this test.
class 0

====

- Tested on: CCRF-CEM leukemia
- protocol_notes: NCI-60 one-dose screen, 48 h (100 = growth as untreated, 0 = no growth, -100 = all killed)
- condition_context: 10 µM unless noted
This is part of a sample that, as a whole, favours compounds with a hit. Of some 83,000 tested, about 20% had one in any assay. Activity calls are given as the source filed them. The calls were made as follows: active = growth percent below 10; inactive = the rest.
recorded_metric: growth

Example entries begin here.
Identify measured growth associated with COc1cccc(-c2nc3sccn3c2-c2ccnc(NCCNC(=O)c3ccccc3)n2)c1
52.5% (inactive)

Identify measured growth associated with O=C(CNc1cccnc1)Nc1ccc(C(=O)/C=C/c2ccc(Cl)cc2)cc1
26.6% (inactive)

Identify measured growth associated with COc1ccccc1S(=O)(=O)Nc1ccc2c3c(cc(-c4cnn(C5CC5)c4)nc13)C(=O)N2C
76.9% (inactive)

Identify measured growth associated with CC(=O)Nc1ccc(OC(=O)c2ccccc2O)cc1
95.9% (inactive)

Identify measured growth associated with CCCCNc1cc(C(=O)O)cc(S(N)(=O)=O)c1Oc1ccccc1
105% (inactive)

Field: next compound
Identify measured growth associated with COc1ccc(N)c(S)c1
98.2% (inactive)
